# TESTED_ON: T. gondii ME49Luc in IFN-y HeLa, luciferase, 72 h
# ASSAY_DETAILS: T. gondii growth inhibition with IFN-gamma, dose response, cell-based, ME49Luc, HeLa, luciferase, 72 h (AID 1259418)
Results filed as inconclusive are left out. Active and inactive are the calls of the source.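 Rule for the calls: active = fitted half-maximal concentration of signal decrease at or below twice the sample's top tested concentration; inconclusive = flat curve between -70 and -30 percent, or poor fit; inactive = flat within 30 percent, signal rise, or potency above limit.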
Outcomes: class 1 (active), class 0 (inactive)

[[record]]
molecule = "Cc1cccc(CNC2=NCCNC23CCN(S(=O)(=O)c2ccc4c(c2)CCCC4)CC3)c1"
qualitative_label = "class 1"

[[record]]
molecule = "Cn1c2ccccc2c2c1cc(C(=O)N1CCN(c3ccncc3)CC1)n2S(C)(=O)=O"
qualitative_label = "class 1"

[[record]]
molecule = "C[C@@H]1CN([C@@H](C)CO)C(=O)c2cccc(NC(=O)NC3CCCCC3)c2O[C@H]1CN(C)Cc1ccc(C(F)(F)F)cc1"
qualitative_label = "class 1"

[[record]]
molecule = "Cc1ccccc1S(=O)(=O)N1CCC(C(=O)NCCc2csc(-c3ccccc3)n2)CC1"
qualitative_label = "class 1"

[[record]]
molecule = "CC(C)Cc1ccc(S(=O)(=O)N2CCC3(CC2)NCCN=C3NC2CCCCC2)cc1"
qualitative_label = "class 1"

[[record]]
molecule = "COc1ccc(-c2nc(N3CCC(N4CCCCC4)CC3)c3ccccc3n2)cc1"
qualitative_label = "class 1"

[[record]]
molecule = "O=C(c1ccc[nH]1)N1CCC2(CC1)COCCN(c1ncccn1)C2"
qualitative_label = "class 1"

[[record]]
molecule = "CCc1ccc(S(=O)(=O)N2CCC3(CCCN(Cc4c(C)noc4C)C3)C2)cc1 (centres undefined)"
qualitative_label = "class 1"

[[record]]
molecule = "Cc1ccccc1Cn1c(CN2CCC(C(=O)N3CCCC3)CC2)cc2ccccc21"
qualitative_label = "class 0"

[[record]]
molecule = "C1=CC[C@H]2CN(c3ncnc4[nH]ccc34)C[C@H]2C1"
qualitative_label = "class 1"

[[record]]
molecule = "COc1ccccc1N(Cc1nc(-c2cccc(C)c2)oc1C)S(=O)(=O)c1ccc(C)cc1"
qualitative_label = "class 1"

[[record]]
molecule = "COc1ccc(CNc2nc(SCc3ccc(Cl)cc3)nc3ccccc23)cc1"
qualitative_label = "class 1"

[[record]]
molecule = "O=C(NCCc1csc(-c2ccccc2)n1)C1CCN(C(=O)c2ccco2)CC1"
qualitative_label = "class 0"

[[record]]
molecule = "O=C(CC1CCC2(CC1)CCN(c1ncc(F)cn1)CC2)N1CC=CC1"
qualitative_label = "class 1"

[[record]]
molecule = "Cc1ccc(S(=O)(=O)N2CCC3(CC2)NCCN=C3NCc2ccc(F)c(Cl)c2)cc1C"
qualitative_label = "class 1"

[[record]]
molecule = "Cc1ccc(CSC2=Nc3ccccc3C3=NC(CC(=O)NCc4ccc5c(c4)OCO5)C(=O)N23)cc1 (centres undefined)"
qualitative_label = "class 0"

[[record]]
molecule = "COc1cccc(-c2nc(C)c(-c3ccc(SCc4ccccc4)nn3)s2)c1"
qualitative_label = "class 1"

[[record]]
molecule = "O=C(NCCCN1CCCC1)C1CCN(Cc2cc3ccccc3n2Cc2ccccc2Cl)CC1"
qualitative_label = "class 1"

[[record]]
molecule = "CCCN1CCc2nc(SCc3nc(-c4ccccc4OC)oc3C)[nH]c(=O)c2C1"
qualitative_label = "class 0"

[[record]]
molecule = "Cc1ccc(C(=O)N2CCC3(CC2)Nc2cc(F)ccc2-n2cccc23)cc1C"
qualitative_label = "class 0"

[[record]]
molecule = "Cn1ncnc1[C@H]1c2n[nH]c(=O)c3cc(F)cc(c23)N[C@@H]1c1ccc(F)cc1"
qualitative_label = "class 1"

[[record]]
molecule = "COc1ccc(CNC(=O)CC2N=C3c4ccccc4N=C(SCc4ccc(C)cc4)N3C2=O)cc1 (centres undefined)"
qualitative_label = "class 1"

[[record]]
molecule = "CN(C)c1nc(N2CCCC2)nc2c1CCN(Cc1ccoc1)CC2"
qualitative_label = "class 1"

[[record]]
molecule = "Cc1ccc(S(=O)(=O)N2CCC3(CC2)NCCN=C3NCc2ccccc2)c(C)c1"
qualitative_label = "class 1"

[[record]]
molecule = "CCc1nc(OCC(=O)Nc2ccc(Cl)cc2Cl)c2ccccc2n1"
qualitative_label = "class 1"

[[record]]
molecule = "Cc1ccccc1-c1ccc(C2[C@H]3CNC[C@@H]2N3Cc2ccc3c(c2)OCO3)cc1 (some centres undefined)"
qualitative_label = "class 0"

[[record]]
molecule = "Cc1cc(C(=O)Nc2ccc3c(c2)C(=O)N(C)[C@@H]2CC[C@@H](CC(=O)NCc4ccc(-c5ccccc5)cc4)O[C@@H]2CO3)no1"
qualitative_label = "class 1"

[[record]]
molecule = "COc1ccc(CN2C[C@@H]3C[C@H](C(=O)Nc4ccccc4)[C@@H](C2)O3)cc1"
qualitative_label = "class 0"

[[record]]
molecule = "CCc1ccc(S(=O)(=O)N2CCC3(CC2)NCCN=C3NCc2ccc(Cl)cc2)cc1"
qualitative_label = "class 1"

[[record]]
molecule = "O=C(NC1CCCC1)N1CCCCN2[C@H](CO)[C@@H](c3ccc(-c4cccnc4)cc3)[C@H]2C1"
qualitative_label = "class 0"

[[record]]
molecule = "Cc1cc(C)c(S(=O)(=O)N2CCC3(CC2)NCCN=C3NC2CCCCC2)cc1C"
qualitative_label = "class 1"

[[record]]
molecule = "Cc1ccc(N2CC(NC(=O)C(=O)c3c[nH]c4ccccc34)CC2=O)cc1 (centres undefined)"
qualitative_label = "class 0"

[[record]]
molecule = "CC(C)n1cnc2c(NCC3CC3)nc(C3CCN(C(=O)c4cccc(F)c4F)CC3)cc21"
qualitative_label = "class 1"

[[record]]
molecule = "COc1ccc(NC(=O)CN2CCC3(CC2)N=C(c2cccc(Cl)c2)C(=O)N3)cc1"
qualitative_label = "class 1"

[[record]]
molecule = "CCCCNC(=O)CCC1N=C2c3ccccc3N=C(SCc3ccc(Cl)cc3)N2C1=O (centres undefined)"
qualitative_label = "class 1"

[[record]]
molecule = "O=C(C[C@@H]1CC[C@@H]2[C@H](COC[C@@H](O)CN2S(=O)(=O)c2ccccc2)O1)NCC1CCCCC1"
qualitative_label = "class 1"

[[record]]
molecule = "O=C1CCc2cc(S(=O)(=O)NCCc3ccccc3)cc3c2N1CCC3"
qualitative_label = "class 1"

[[record]]
molecule = "Cc1cccc(-c2nc(Cn3nnc(-c4nc(-c5ccncc5)no4)c3C)c(C)o2)c1"
qualitative_label = "class 1"

[[record]]
molecule = "Cc1ccc(C(=O)Nc2c(C(=O)NCc3cccnc3)[nH]c3ccccc23)cc1"
qualitative_label = "class 0"

